assay: Differential scanning fluorimetry (protein thermal shift; TM1/TM2); format: physicochemical; conditions: Table 11; melting temperature of the Fab domain
Quantity: TM2 (° C.) (°C)
Numbers only here, please. The scale is °C.

Molecule | TM2 (° C.) [°C]
SRP2196-B10 (antibody, V domains shown) VH: EVQLVESGGGLVQPGGSLRLSCAASGFNITGYYIHWVRQAPGKGLEWVGSITPLSGATSKADSVKGRFTISADTSKNTAYLQMNSLRAEDTAVYYCARDSRRYIRSWDYWGQGTLVTVSS VL: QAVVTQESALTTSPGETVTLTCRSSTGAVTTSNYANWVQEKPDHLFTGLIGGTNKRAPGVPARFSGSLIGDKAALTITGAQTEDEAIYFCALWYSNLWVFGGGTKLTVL | 70

The molecule listed as SRP2196-B06 (antibody, V domains shown) VH: EVQLVESGGGLVQPGGSLRLSCAASGFNITGYYIHWVRQAPGKGLEWVGQISPNSGSTYSADSVKGRFTISADTSKNTAYLQMNSLRAEDTAVYYCARDSRRYVLSWDYWGQGTLVTVSS VL: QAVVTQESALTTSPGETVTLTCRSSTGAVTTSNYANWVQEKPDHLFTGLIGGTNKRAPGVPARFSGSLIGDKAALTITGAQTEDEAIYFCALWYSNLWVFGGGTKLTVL shows TM2 (° C.) equal to 70

Form: molecule = SRP2196-B04 (antibody, V domains shown) VH: EVQLVESGGGLVQPGGSLRLSCAASGFNITEYYIHWVRQAPGKGLEWVGYISPNSGATYQADSVKGRFTISADTSKNTAYLQMNSLRAEDTAVYYCARDSRRYVRGWDYWGQGTLVTVSS VL: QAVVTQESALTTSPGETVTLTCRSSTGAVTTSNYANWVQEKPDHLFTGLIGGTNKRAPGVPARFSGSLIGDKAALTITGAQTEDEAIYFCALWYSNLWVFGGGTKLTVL ; TM2 (° C.) = 72
